- System: Rabbit LDL
- test-summary: Amount of TBARS (Cu^2+-induced oxidation of rabbit LDL)
- Format: biochemical
- condition-details: at 10^-6 M of compound; 5 μM Cu^2+; 1 µM
# note: boundary value 90% maps to Not satisfied; TBARS produced (%) below it maps to Satisfied

As a guide, the following entries are already answered.
Query: Dear colleague, could you confirm whether TBARS produced (%) of CCC1(CC)Cc2c(cc(C(C)(C)C)c(O)c2C(C)(C)C)O1 falls below 90%? Thanks.
Reply: Satisfied

Query: Dear colleague, could you confirm whether TBARS produced (%) of CC(C)(C)c1cc2c(c(C(C)(C)C)c1O)CC(CCl)O2 (stereo not drawn) falls below 90%? Thanks.
Reply: Satisfied

Query: Dear colleague, could you confirm whether TBARS produced (%) of CCCCCCCCC1Cc2c(cc(C(C)(C)C)c(O)c2C(C)(C)C)O1 (stereo not drawn) falls below 90%? Thanks.
Reply: Satisfied

Query: Dear colleague, could you confirm whether TBARS produced (%) of CC(C)(C)c1cc2c(c(C(C)(C)C)c1O)CC1(CCCC1)O2 falls below 90%? Thanks.
Reply: Satisfied

Query: Dear colleague, could you confirm whether TBARS produced (%) of CC(C)(C)c1cc2occc2c(C(C)(C)C)c1O [Compound r, 4,6-Di-tert-Butyl-5-Hydroxybenzofuran] falls below 90%? Thanks.
Reply: Satisfied

Here is the next item to consider.
Query: Dear colleague, could you confirm whether TBARS produced (%) of CCCCCC1(CCCCC)Cc2c(cc(C(C)(C)C)c(O)c2C(C)(C)C)O1 falls below 90%? Thanks.
Reply: Not satisfied
